Molecular target: Protein cereblon/Tyrosine-protein phosphatase non-receptor type 1 (Homo sapiens, UniProt P18031+Q96SW2)
Sequence (P18031 whole entry, looked up): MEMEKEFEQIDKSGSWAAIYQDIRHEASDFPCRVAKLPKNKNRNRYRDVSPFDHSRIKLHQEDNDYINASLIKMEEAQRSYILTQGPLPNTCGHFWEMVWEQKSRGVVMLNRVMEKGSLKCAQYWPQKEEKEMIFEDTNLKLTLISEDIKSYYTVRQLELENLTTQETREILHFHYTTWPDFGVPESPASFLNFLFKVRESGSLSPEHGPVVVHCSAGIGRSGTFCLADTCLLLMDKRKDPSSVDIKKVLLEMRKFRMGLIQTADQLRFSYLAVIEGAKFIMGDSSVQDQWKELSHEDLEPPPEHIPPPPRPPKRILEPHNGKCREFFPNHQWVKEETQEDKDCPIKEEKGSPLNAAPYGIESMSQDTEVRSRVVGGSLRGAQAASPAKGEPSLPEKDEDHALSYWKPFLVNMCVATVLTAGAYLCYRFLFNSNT
Sequence (Q96SW2 whole entry, looked up): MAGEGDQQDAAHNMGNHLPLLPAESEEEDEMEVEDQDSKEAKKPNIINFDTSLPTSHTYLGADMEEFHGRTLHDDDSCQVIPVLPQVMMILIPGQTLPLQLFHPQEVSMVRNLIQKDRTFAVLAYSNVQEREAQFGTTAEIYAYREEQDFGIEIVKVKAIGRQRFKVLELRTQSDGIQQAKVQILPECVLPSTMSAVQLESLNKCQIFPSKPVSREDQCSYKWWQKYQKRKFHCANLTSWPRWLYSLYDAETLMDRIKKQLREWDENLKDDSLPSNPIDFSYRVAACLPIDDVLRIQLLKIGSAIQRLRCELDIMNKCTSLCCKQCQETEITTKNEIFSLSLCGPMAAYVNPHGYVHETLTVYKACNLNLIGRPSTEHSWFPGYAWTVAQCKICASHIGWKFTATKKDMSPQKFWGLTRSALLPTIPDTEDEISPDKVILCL
Experiment: PROTAC activity at PTP1B/CRBN in insulin treated human HepG2 cells assessed as protein degradation at 25 nM incubated for 72 hrs by Western blot analysis relative to control
Assay type: cell-based

COMPOUND: CC1(C)CC[C@]2(C(=O)NCCCCCCOCCOCCOCCOCCCCCC(=O)Nc3cccc4c3C(=O)N(C3CCC(=O)NC3=O)C4=O)CC[C@]3(C)C(=CC[C@@H]4[C@@]5(C)CC[C@H](O)C(C)(C)[C@@H]5CC[C@]43C)[C@@H]2C1 (stereo not given in full)
Activity: 58%
//
COMPOUND: C[C@H]1[C@H](C)CC[C@]2(C(=O)NCCCCCCOCCOCCOCC(=O)Nc3cccc4c3C(=O)N(C3CCC(=O)NC3=O)C4=O)CC[C@]3(C)C(=CC[C@@H]4[C@@]5(C)CC[C@H](O)C(C)(C)[C@@H]5CC[C@]43C)[C@H]12 (stereo not given in full)
Activity: 50%
//
COMPOUND: CC1(C)CC[C@]2(C(=O)NCCCOCCOCCOCCCNc3cccc4c3C(=O)N(C3CCC(=O)NC3=O)C4=O)CC[C@]3(C)C(=CC[C@@H]4[C@@]5(C)CC[C@H](O)C(C)(C)[C@@H]5CC[C@]43C)[C@@H]2C1 (stereo not given in full)
Activity: 58%
//
COMPOUND: C[C@H]1[C@H](C)CC[C@]2(C(=O)NCCCCCCOCCOCCOCCOCC(=O)Nc3cccc4c3C(=O)N(C3CCC(=O)NC3=O)C4=O)CC[C@]3(C)C(=CC[C@@H]4[C@@]5(C)CC[C@H](O)C(C)(C)[C@@H]5CC[C@]43C)[C@H]12 (stereo not given in full)
Activity: 48%
//
COMPOUND: CC1(C)CC[C@]2(C(=O)NCCCOCCCCOCCCNc3cccc4c3C(=O)N(C3CCC(=O)NC3=O)C4=O)CC[C@]3(C)C(=CC[C@@H]4[C@@]5(C)CC[C@H](O)C(C)(C)[C@@H]5CC[C@]43C)[C@@H]2C1 (stereo not given in full)
Activity: 66%

###

Target: Protein cereblon/Tyrosine-protein phosphatase non-receptor type 1 (Homo sapiens, UniProt P18031+Q96SW2)
Experiment: PROTAC activity at PTP1B/CRBN in insulin treated human HepG2 cells assessed as protein degradation at 5000 nM incubated for 48 hrs by Western blot analysis relative to control
Type: cell-based

COMPOUND: C[C@H]1[C@H](C)CC[C@]2(C(=O)NCCCCCCOCCOCCOCCOCC(=O)Nc3cccc4c3C(=O)N(C3CCC(=O)NC3=O)C4=O)CC[C@]3(C)C(=CC[C@@H]4[C@@]5(C)CC[C@H](O)C(C)(C)[C@@H]5CC[C@]43C)[C@H]12 (stereo partly specified)
Activity: 19%
//
COMPOUND: O=C1CCC(N2C(=O)c3cccc(NC(=O)CCCCCOCCOCCOCCCCCCNC(=O)c4cccc(NC(=O)CSc5nc6ccccc6[nH]5)c4)c3C2=O)C(=O)N1 (stereo unspecified)
Activity: 30%
//
COMPOUND: CC1(C)CC[C@]2(C(=O)NCCCCCCOCCOCCCCCC(=O)Nc3cccc4c3C(=O)N(C3CCC(=O)NC3=O)C4=O)CC[C@]3(C)C(=CC[C@@H]4[C@@]5(C)CC[C@H](O)C(C)(C)[C@@H]5CC[C@]43C)[C@@H]2C1 (stereo partly specified)
Activity: < 5%
//
COMPOUND: O=C1CCC(N2C(=O)c3cccc(NC(=O)COCCOCCOCCOCCCCCCNC(=O)c4cccc(NC(=O)CSc5nc6ccccc6[nH]5)c4)c3C2=O)C(=O)N1 (stereo unspecified)
Activity: 15%
//
COMPOUND: O=C1CCC(N2C(=O)c3cccc(NC(=O)COCCOCCCCCCNC(=O)c4cccc(NC(=O)CSc5nc6ccccc6[nH]5)c4)c3C2=O)C(=O)N1 (stereo unspecified)
Activity: < 5%
//
COMPOUND: C[C@H]1[C@H](C)CC[C@]2(C(=O)NCCCCCCOCCOCC(=O)Nc3cccc4c3C(=O)N(C3CCC(=O)NC3=O)C4=O)CC[C@]3(C)C(=CC[C@@H]4[C@@]5(C)CC[C@H](O)C(C)(C)[C@@H]5CC[C@]43C)[C@H]12 (stereo partly specified)
Activity: < 5%
//
COMPOUND: O=C1CCC(N2C(=O)c3cccc(NC(=O)COCCOCCOCCCCCCNC(=O)c4cccc(NC(=O)CSc5nc6ccccc6[nH]5)c4)c3C2=O)C(=O)N1 (stereo unspecified)
Activity: < 5%
//
COMPOUND: CC1(C)CC[C@]2(C(=O)NCCCOCCOCCOCCCNc3cccc4c3C(=O)N(C3CCC(=O)NC3=O)C4=O)CC[C@]3(C)C(=CC[C@@H]4[C@@]5(C)CC[C@H](O)C(C)(C)[C@@H]5CC[C@]43C)[C@@H]2C1 (stereo partly specified)
Activity: 31%
//
COMPOUND: O=C1CCC(N2C(=O)c3cccc(NC(=O)CCCCCOCCOCCOCCOCCCCCCNC(=O)c4cccc(NC(=O)CSc5nc6ccccc6[nH]5)c4)c3C2=O)C(=O)N1 (stereo unspecified)
Activity: < 5%
//
COMPOUND: CC1(C)CC[C@]2(C(=O)NCCCCCCOCCOCCOCC(=O)Nc3cccc4c3C(=O)N(C3CCC(=O)NC3=O)C4=O)CC[C@]3(C)C(=CC[C@@H]4[C@@]5(C)CC[C@H](O)C(C)(C)[C@@H]5CC[C@]43C)[C@@H]2C1 (stereo partly specified)
Activity: < 5%
//
COMPOUND: CC1(C)CC[C@]2(C(=O)NCCCCCCOCCOCC(=O)Nc3cccc4c3C(=O)N(C3CCC(=O)NC3=O)C4=O)CC[C@]3(C)C(=CC[C@@H]4[C@@]5(C)CC[C@H](O)C(C)(C)[C@@H]5CC[C@]43C)[C@@H]2C1 (stereo partly specified)
Activity: < 5%
